B1: LINE1-full (parent)
chain: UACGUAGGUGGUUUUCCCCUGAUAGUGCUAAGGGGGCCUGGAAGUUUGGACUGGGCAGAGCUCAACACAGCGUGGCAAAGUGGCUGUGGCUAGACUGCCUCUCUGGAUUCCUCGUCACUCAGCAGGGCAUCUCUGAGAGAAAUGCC

variants of: B1; assay: self-cleavage, relative activity (ratio to wild type); higher = more cleavage; in vitro, sequencing; the parent is a self-cleaving ribozyme
measurement.kind: self-cleavage

- U26G C111U: 0.63
- C84U U134C: 0.19
- U9C U87A: 0.2
- A121U A138C: 1.56
- U47C C118A: 0.46
- U9C A67U: 0.26
- C18A A57G: 1.29
- G33A U62C: 0.05
- G97A U109A: 0.07
- A67G C99U: 0.27
- U112A U134C: 1.56
- U5C A50U: 0.64
- U9C G35C: 1.43
- A67G G125U: 0.39
- A57G G83C: 0.17
- A77U U81C: 1.47
- U26C U73C: 1.45
- A121G U143A: 0.91
- U20C G86A: 0.11
- A69U U130C: 0.05
- A2U A142C: 1.09
- U47A U73C: 1.45
- U62A A79G: 0.04
- A2G U9A: 0.56
- U12C U13C: 1.2
- U9C A78G: 1.19
- A79U A129G: 2.13
- C18U A69G: 0.29
- U13G U132G: 2.18
- U45A U102C: 1.45
- U5A U62C: 0.05
- A24U U85C: 0.15
- A2G U132G: 1.6
